The measurements presented in this section are drawn from paper PMC8809517.

- TESTED ON: T1, GFP-9S library array, motif 4 ND N98S;D124N (synthetic construct, N98S;D124N)
- T1 chain: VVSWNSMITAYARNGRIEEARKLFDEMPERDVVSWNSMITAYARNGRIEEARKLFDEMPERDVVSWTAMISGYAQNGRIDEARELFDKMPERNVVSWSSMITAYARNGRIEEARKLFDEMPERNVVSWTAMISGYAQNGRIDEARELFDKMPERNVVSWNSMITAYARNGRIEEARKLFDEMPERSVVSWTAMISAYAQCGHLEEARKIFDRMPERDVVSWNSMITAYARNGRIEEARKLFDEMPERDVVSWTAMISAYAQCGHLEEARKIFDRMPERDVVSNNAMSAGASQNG
- PROCEDURE TEXT: high-throughput RNA pulldown from lysate on Ni-NTA beads; HRP: 50 mM Tris pH 8, 150 mM NaCl, 1 mM beta-mercaptoethanol, 50 ug/ml BSA, 3 ug/ml yeast RNA, 0.5% heparin; ITC and FP: Tris pH 8, 200 mM KCl, 5% glycerol; MST: 50 mM Tris pH 8, 200 mM NaCl, 1 mM DTT, BSA, heparin, 0.05% Tween 20
- ASSAY CONTEXT: tags: N-terminal His-eGFP; label: 5' IRDye 800CW
pKd: −log10 of the molar value.
ATTRIBUTE MEASURED: pKd

# BINDER, NUMERIC READOUT
records = [
    ("AUUAAACGUGA (ssRNA) [IR-rpoA-A]", 7.29),
    ("AUUAUACGUGA (ssRNA) [IR-rpoA-U]", 6.56),
]
